assay: melting temperature; fluorescence melt of hairpins on a sequencing array, two-state fit, raised by 9.35 °C to match UV melts; settings: sodium 0.088 M
Overview of recorded Tm for various sequences

{"columns": ["sequence.record", "Tm [°C]"],
 "data": [
  ["GCGGTACGAAAGTATCGC (((.(((....))).)))", 64.7],
  ["GCACGCGAAAGCGGGTGC ((((((....)))..)))", 66.1],
  ["GCGTAGGACGC ((((...))))", 55.2],
  ["GCGTCGCGAAAGCTTCGC (((..((....))..)))", 53.5],
  ["GATCGAACACTCGATC ((((((....))))))", 48.9],
  ["GCCGGTACGAAAGTAGGC (((..(((....))))))", 48.7],
  ["GCTGTGGGAAACTACGGC ((.((.(....).)).))", 42.6],
  ["GTTGACGAAAGTCGAAC ((((((....))).)))", 45.4],
  ["GCAGCGCGAAAGCTTTGC (((..((....))..)))", 37.4],
  ["CGTTCGGAAACGAGGACG ((((((....)))..)))", 34.7]
]}

###

assay: melting temperature; fluorescence melt of hairpins on a sequencing array, two-state fit, raised by 9.35 °C to match UV melts; details: sodium 0.088 M

{"columns": ["sequence.record", "Tm [°C]"],
 "data": [
  ["GGACTCGAAAGAGTGTCC ((((((....)))..)))", 40.7],
  ["GTAGTCGAAAGACGGTAC ((((((....)))..)))", 39.2],
  ["GCTGACGGAAACGCCAAC (.((.((....)).)).)", 25.9],
  ["GCATAGCGAAAGCCCTGC (((..((....))..)))", 29.5],
  ["GCTGGCGGAAACGTCAGC ((((.((....)).))))", 61.2],
  ["GTTCGCGCGAAAGCGAAC (((..(((....))))))", 60.5],
  ["GGATACGAAAGTAGTTCC ((((((....)))..)))", 25],
  ["GCAGAGCGAAAGCTCAGC ((.((((....)))).))", 64.8],
  ["GCAACGCGAAAGCTTAGC ((.(.((....)).).))", 28.5],
  ["GGACTCGAAAGAGGGTCC ((((((....)))..)))", 43.9],
  ["GACTACGAAAGTATCGTC ((((((....)))..)))", 31.1],
  ["GATCATGTCAATGATC ((((((....))))))", 56.9],
  ["GATCATCCATATGATC ((((((....))))))", 47],
  ["GTAAGGCGAAAGCCATAC (((.(((....))).)))", 44.8],
  ["GATCCCTACTGGGATC ((((((....))))))", 64.4],
  ["GGCTCCGGAAACGGAACC ((.((((....)))).))", 51.1],
  ["GGTCCCGGAAACGGGATC (.(((((....))))).)", 57.1],
  ["GCGTTGAACGC ((((...))))", 54.1],
  ["GCCGCAGGAAACTGTGGC (((.(((....))).)))", 60.3],
  ["GGCCGGGCGAAAGCCGCC (((..(((....))))))", 57.7],
  ["GGAGGCGAAAGCCTTCC ((((((....))).)))", 57.9],
  ["GATCAGTTTACTGATC ((((((....))))))", 59.6],
  ["GTCCCTGCGAAAGCAGAC (((..(((....))))))", 32.2],
  ["GGATCCGAAAGGAGCTCC ((((((....)))..)))", 44.2],
  ["GTCTTCCGAAAGGAGGAC (((.(((....))).)))", 54.5],
  ["GTATAAGGAAACTTATGC (.(((((....))))).)", 31.6],
  ["GATGCCGAAAGGCTGATC ((((((....)))..)))", 36.6],
  ["GCTTCGCGAAAGCAGAGC (((..((....))..)))", 48.3],
  ["GTGCCGCGAAAGCGCCAC (((.(((....))).)))", 53.8],
  ["GATAACGAAAGTTGTATC ((((((....)))..)))", 26.9],
  ["GGCTACCGAAAGGTCGCC (((.(((....))).)))", 58.6],
  ["GTGGCTGGAAACAGCCGC (.(((((....))))).)", 63],
  ["GCCCAGCGAAAGCTGAGC ((.((((....)))).))", 63.3],
  ["GTTTTGGGAAACCAAAGC (.(((((....))))).)", 41]
]}

###

Measured folding enthalpy accompanies every entry in the list below.
experiment: folding enthalpy; higher = less favourable; fluorescence melt of hairpins on a sequencing array, two-state fit; settings: sodium 0.088 M

{"columns": ["sequence.record", "folding enthalpy"],
 "data": [
  ["GTACGTGCGAAAGCATAC (((..(((....))))))", "-10.3 kcal/mol"],
  ["GATCAAGGATTTGATC ((((((....))))))", "-29.8 kcal/mol"],
  ["GCACGCGAAAGCGCATGC ((((((....)))..)))", "-13.6 kcal/mol"],
  ["GGGTCCGAAAGGATTCCC ((((((....)))..)))", "-22.2 kcal/mol"],
  ["GAACGCGAAAGCGGATTC ((((((....)))..)))", "-15.8 kcal/mol"],
  ["GCATCTCGAAAGAGCTGC (((.(((....))).)))", "-30.9 kcal/mol"],
  ["GACAGAGGAAACTCTGCC (.(((((....))))).)", "-15.5 kcal/mol"],
  ["GCTACGCGAAAGCGAGC (((.(((....))))))", "-15.8 kcal/mol"],
  ["GCAACTCGAAAGAGCTGC (((.(((....))).)))", "-46.6 kcal/mol"]
]}

###

assay: melting temperature; fluorescence melt of hairpins on a sequencing array, two-state fit, raised by 9.35 °C to match UV melts; conditions: sodium 0.088 M
recorded.metric: Tm (°C)

{"columns": ["sequence.record", "recorded.metric", "result"],
 "data": [
  ["GATCGGAGATCCGATC ((((((....))))))", "Tm", 56],
  ["GCACAGCGAAAGCAGAGC ((.(.((....)).).))", "Tm", 47.3],
  ["GTGTCTGAAAAGACAC ((((((....))))))", "Tm", 61],
  ["GTCACGGGAAACCGTAAC ((.((((....)))).))", "Tm", 36.1],
  ["GATCCATTGTGGATC ((((((...))))))", "Tm", 51.7]
]}

###

assay: melting temperature; fluorescence melt of hairpins on a sequencing array, two-state fit, raised by 9.35 °C to match UV melts; details: sodium 0.088 M
Dear colleague, classification is by Tm, with ranges listed here: low: < 50 °C; middle: ≥ 50 °C and < 60 °C; high: ≥ 60 °C

{"columns": ["sequence.record", "classification"],
 "data": [
  ["GGCTAGCGAAAGCTTGCC (((.(((....))).)))", "high"],
  ["GTCGGGGCGAAAGCCGAC (((..(((....))))))", "middle"],
  ["GGATAGGGAAACCTATTC (.(((((....))))).)", "low"],
  ["GCTACCGGAAACGGCAAC (.(.(((....))).).)", "low"],
  ["GATCGGCAAACCGATC ((((((....))))))", "middle"],
  ["GATCCTGGTTAGGATC ((((((....))))))", "middle"],
  ["GATCTACGCTAGATC ((((((...))))))", "low"],
  ["GTGCTGCGAAAGCACCAC (((.(((....))).)))", "middle"],
  ["GTGGGCGAAAGCCACCAC ((((((....)))..)))", "low"],
  ["GGCCTCGAAAGAGCCGCC ((((((....)))..)))", "middle"],
  ["GGCATCGAAAGATCAGCC ((((((....)))..)))", "low"],
  ["GGATACGGAAACGTACCC ((.((((....)))).))", "low"],
  ["CGCCCGGAAACGGCTGCG ((((((....)))..)))", "low"],
  ["GCAGCGCGAAAGCGTCGC ((..(((....)))..))", "middle"],
  ["GATCGCAAAAGCGATC ((((((....))))))", "high"],
  ["GCAGACCGAAAGGTATGC (((.(((....))).)))", "high"],
  ["GCGTGGCCACGC ((((....))))", "high"],
  ["GGCCAGCGAAAGCTTGCC (((.(((....))).)))", "middle"],
  ["GATCTTCTAAAGATC ((((((...))))))", "low"],
  ["GTGTAGGGAAACTTGCAC (((.(.(....).).)))", "low"],
  ["CGGTGCGGAAACGCTCCG (((.(((....))).)))", "high"]
]}
